All values here come from ChEMBL document CHEMBL6153050.

I'd appreciate it if you could supply deltaTm1/2 values for the items below.
tested on: Quadruplex DNA; settings: time 10.0 min
Give bare numbers, in °C.

Known results for compounds:
| Compound | Assay Target | Recorded Metric | Endpoint Value |
| --- | --- | --- | --- |
| COc1cc(O)c(C(=O)Nc2nc(C(=O)NCCN(C(C)C)C(C)C)cs2)cc1OC | Quadruplex DNA | deltaTm1/2 | 4.4 |
| Cc1c(-c2ccccc2)oc2c(C(=O)OCCN3CCCCC3)cccc2c1=O | Quadruplex DNA | deltaTm1/2 | -2.6 |
| COc1c(-c2ccc3cc(NS(C)(=O)=O)ccc3c2)cc(-n2ccc(=O)[nH]c2=O)cc1C(C)(C)C | Quadruplex DNA | deltaTm1/2 | 4.5 |
| CN1CCC[C@@H]1Cc1c[nH]c2ccc(CCS(=O)(=O)c3ccccc3)cc12 | Quadruplex DNA | deltaTm1/2 | 5.2 |
| CN1CCCC(n2nc(Cc3ccc(Cl)cc3)c3ccccc3c2=O)CC1 (stereo not given) | Quadruplex DNA | deltaTm1/2 | 5.3 |
| CONC(=O)Nc1ccc(-c2sc3c(c2CN(C)C)c(=O)n(-c2ccc(OC)nn2)c(=O)n3Cc2c(F)cccc2F)cc1 | Quadruplex DNA | deltaTm1/2 | 1.9 |
| COc1cc(NC(C)CCCN)c2ncccc2c1 (stereo not given) | Quadruplex DNA | deltaTm1/2 | -2.6 |
| CCCCOc1cc(C(=O)NCCN(CC)CC)c2ccccc2n1 | Quadruplex DNA | deltaTm1/2 | 4.4 |

For every item below, please supply its deltaTm1/2.
1. CC[C@@]1(O)C(=O)OCc2c1cc1n(c2=O)Cc2c-1nc1ccccc1c2CCNC(C)C
2. CCc1cc2c(cc1N1CCC(N3CCOCC3)CC1)C(C)(C)c1[nH]c3cc(C#N)ccc3c1C2=O
3. CCN(CC)CCCC(C)Nc1c2ccc(Cl)cc2nc2ccc(OC)cc12 (stereo not given)
4. CCn1cc(C(=O)O)c(=O)c2cc(F)c(N3CCN(C)CC3)cc21
5. CCc1cc2c(cc1CC)CC(NC[C@H](O)c1ccc(O)c3[nH]c(=O)ccc13)C2
6. COc1ccc(-c2cc(=O)c3c(OC)c(OC)c(OC)cc3o2)cc1OC
7. Cc1cc2ncc(C(=O)NCC(C)(C)NCC(=O)N3CCC[C@H]3C#N)cn2n1
8. O=C(c1ccc(OCCN2CCCCC2)cc1)c1c(-c2ccc(O)cc2)sc2cc(O)ccc12

1: 7.5; 2: -3.3; 3: 18.5; 4: 4.5; 5: 5.8; 6: 4; 7: 5.4; 8: 3.2

For every item below, please supply its deltaTm1/2.
1. N[C@@H]1CCCCN(c2c(F)cc3c(=O)c(C(=O)O)cn(C4CC4)c3c2Cl)C1
2. Cn1nnc(-c2ccc(-c3ccc(N4C[C@H](CO)OC4=O)cc3F)cn2)n1
3. CN(C)CCCOc1nn(Cc2ccccc2)c2ccccc12

1.7
1
3

Using the record for `CCc1c2c(nc3ccc(OC(=O)N4CCC(N5CCCCC5)CC4)cc13)-c1cc3c(c(=O)n1C2)COC(=O)[C@]3(O)CC` , report its deltaTm1/2. 8.7

###

tested on: Quadruplex DNA; conditions: time 10.0 min
Recorded Metric: deltaTm1/2

Known results for compounds:
| Compound | Recorded Metric | Endpoint Value |
| --- | --- | --- |
| Cc1cc2ncc(C(=O)NCC(C)(C)NCC(=O)N3CCC[C@H]3C#N)cn2n1 | deltaTm1/2 | 3.1 °C |
| CN1CCCC(n2nc(Cc3ccc(Cl)cc3)c3ccccc3c2=O)CC1 (stereo not given) [AZELASTINE] | deltaTm1/2 | 17.1 °C |
| CN(C)CCCOc1nn(Cc2ccccc2)c2ccccc12 | deltaTm1/2 | 8.4 °C |
| O=C(c1ccc(OCCN2CCCCC2)cc1)c1c(-c2ccc(O)cc2)sc2cc(O)ccc12 [RALOXIFENE] | deltaTm1/2 | 11 °C |
| COc1cc(O)c(C(=O)Nc2nc(C(=O)NCCN(C(C)C)C(C)C)cs2)cc1OC | deltaTm1/2 | 9.5 °C |

For every item below, please supply its deltaTm1/2.
1. COc1ccc(-c2cc(=O)c3c(OC)c(OC)c(OC)cc3o2)cc1OC
2. N[C@@H]1CCCCN(c2c(F)cc3c(=O)c(C(=O)O)cn(C4CC4)c3c2Cl)C1
3. CCc1cc2c(cc1N1CCC(N3CCOCC3)CC1)C(C)(C)c1[nH]c3cc(C#N)ccc3c1C2=O

1: 10.6 °C; 2: 4.9 °C; 3: 2.5 °C

###

system: Quadruplex RNA; settings: time 10.0 min
Recorded Metric: deltaTm1/2 (°C)
Give bare numbers, in °C.

Known results for compounds:
| Compound | Recorded Metric | Value Unit | Endpoint Value |
| --- | --- | --- | --- |
| Cc1c(-c2ccccc2)oc2c(C(=O)OCCN3CCCCC3)cccc2c1=O | deltaTm1/2 | °C | 8.5 |
| CCn1cc(C(=O)O)c(=O)c2cc(F)c(N3CCN(C)CC3)cc21 | deltaTm1/2 | °C | 9.8 |
| COc1cc(O)c(C(=O)Nc2nc(C(=O)NCCN(C(C)C)C(C)C)cs2)cc1OC | deltaTm1/2 | °C | 7.5 |
| COc1cc(NC(C)CCCN)c2ncccc2c1 (stereo not given) | deltaTm1/2 | °C | 4.2 |
| COc1c(-c2ccc3cc(NS(C)(=O)=O)ccc3c2)cc(-n2ccc(=O)[nH]c2=O)cc1C(C)(C)C | deltaTm1/2 | °C | 2.6 |

For every item below, please supply its deltaTm1/2.
1. O=C(c1ccc(OCCN2CCCCC2)cc1)c1c(-c2ccc(O)cc2)sc2cc(O)ccc12
2. CN1CCC[C@@H]1Cc1c[nH]c2ccc(CCS(=O)(=O)c3ccccc3)cc12

[6.3, 4.5]

###

test system: Quadruplex DNA; details: time 10.0 min
I'd appreciate it if you could supply deltaTm1/2 values for the items below.

Known results for compounds:
| Compound | Endpoint Value |
| --- | --- |
| CCn1cc(C(=O)O)c(=O)c2cc(F)c(N3CCN(C)CC3)cc21 | 4.6 °C |
| Cc1c(-c2ccccc2)oc2c(C(=O)OCCN3CCCCC3)cccc2c1=O | 4.5 °C |
| COc1cc(O)c(C(=O)Nc2nc(C(=O)NCCN(C(C)C)C(C)C)cs2)cc1OC | 3.9 °C |
| Cn1nnc(-c2ccc(-c3ccc(N4C[C@H](CO)OC4=O)cc3F)cn2)n1 | 1.2 °C |
| O=C(c1ccc(OCCN2CCCCC2)cc1)c1c(-c2ccc(O)cc2)sc2cc(O)ccc12 | 4 °C |

For every item below, please supply its deltaTm1/2.
1. CCCCOc1cc(C(=O)NCCN(CC)CC)c2ccccc2n1
2. CCc1c2c(nc3ccc(OC(=O)N4CCC(N5CCCCC5)CC4)cc13)-c1cc3c(c(=O)n1C2)COC(=O)[C@]3(O)CC
3. CN1CCCC(n2nc(Cc3ccc(Cl)cc3)c3ccccc3c2=O)CC1 (stereo not given)
4. Cc1cc2ncc(C(=O)NCC(C)(C)NCC(=O)N3CCC[C@H]3C#N)cn2n1
5. CCc1cc2c(cc1N1CCC(N3CCOCC3)CC1)C(C)(C)c1[nH]c3cc(C#N)ccc3c1C2=O
6. CCN(CC)CCCC(C)Nc1c2ccc(Cl)cc2nc2ccc(OC)cc12 (stereo not given)
7. N[C@@H]1CCCCN(c2c(F)cc3c(=O)c(C(=O)O)cn(C4CC4)c3c2Cl)C1
8. CC[C@@]1(O)C(=O)OCc2c1cc1n(c2=O)Cc2c-1nc1ccccc1c2CCNC(C)C

1. 0.2 °C
2. 19 °C
3. 7.7 °C
4. -0.1 °C
5. 0 °C
6. > 20 °C
7. 1.3 °C
8. 15.9 °C

###

tested on: Quadruplex DNA; conditions: time 10.0 min
// n strictly below 10 °C in deltaTm1/2; y otherwise

| Molecule | Category Label |
| --- | --- |
| COc1cc(NC(C)CCCN)c2ncccc2c1 (configuration not stated) | n |
| CCn1cc(C(=O)O)c(=O)c2cc(F)c(N3CCN(C)CC3)cc21 | n |
| CCc1c2c(nc3ccc(OC(=O)N4CCC(N5CCCCC5)CC4)cc13)-c1cc3c(c(=O)n1C2)COC(=O)[C@]3(O)CC [IRINOTECAN] | y |
| Cn1nnc(-c2ccc(-c3ccc(N4C[C@H](CO)OC4=O)cc3F)cn2)n1 | n |
| CCN(CC)CCCC(C)Nc1c2ccc(Cl)cc2nc2ccc(OC)cc12 (configuration not stated) | y |

Test whether the molecule `CN1CCC[C@@H]1Cc1c[nH]c2ccc(CCS(=O)(=O)c3ccccc3)cc12` records deltaTm1/2 of 10 °C or higher. n

Test whether the molecule `COc1c(-c2ccc3cc(NS(C)(=O)=O)ccc3c2)cc(-n2ccc(=O)[nH]c2=O)cc1C(C)(C)C` records deltaTm1/2 of 10 °C or higher. n

Test whether the molecule CCc1cc2c(cc1CC)CC(NC[C@H](O)c1ccc(O)c3[nH]c(=O)ccc13)C2 [INDACATEROL] records deltaTm1/2 of 10 °C or higher. n

Test whether the molecule CC[C@@]1(O)C(=O)OCc2c1cc1n(c2=O)Cc2c-1nc1ccccc1c2CCNC(C)C [BELOTECAN] records deltaTm1/2 of 10 °C or higher. y

Test whether the molecule `CCCCOc1cc(C(=O)NCCN(CC)CC)c2ccccc2n1` records deltaTm1/2 of 10 °C or higher. n
